biological target: Integrin alpha-IIb/beta-3 (Homo sapiens, UniProt P05106+P08514); experiment: Inhibition of human platelet adhesion to fibrinogen
Sequence (P05106 27-788 limits assumed): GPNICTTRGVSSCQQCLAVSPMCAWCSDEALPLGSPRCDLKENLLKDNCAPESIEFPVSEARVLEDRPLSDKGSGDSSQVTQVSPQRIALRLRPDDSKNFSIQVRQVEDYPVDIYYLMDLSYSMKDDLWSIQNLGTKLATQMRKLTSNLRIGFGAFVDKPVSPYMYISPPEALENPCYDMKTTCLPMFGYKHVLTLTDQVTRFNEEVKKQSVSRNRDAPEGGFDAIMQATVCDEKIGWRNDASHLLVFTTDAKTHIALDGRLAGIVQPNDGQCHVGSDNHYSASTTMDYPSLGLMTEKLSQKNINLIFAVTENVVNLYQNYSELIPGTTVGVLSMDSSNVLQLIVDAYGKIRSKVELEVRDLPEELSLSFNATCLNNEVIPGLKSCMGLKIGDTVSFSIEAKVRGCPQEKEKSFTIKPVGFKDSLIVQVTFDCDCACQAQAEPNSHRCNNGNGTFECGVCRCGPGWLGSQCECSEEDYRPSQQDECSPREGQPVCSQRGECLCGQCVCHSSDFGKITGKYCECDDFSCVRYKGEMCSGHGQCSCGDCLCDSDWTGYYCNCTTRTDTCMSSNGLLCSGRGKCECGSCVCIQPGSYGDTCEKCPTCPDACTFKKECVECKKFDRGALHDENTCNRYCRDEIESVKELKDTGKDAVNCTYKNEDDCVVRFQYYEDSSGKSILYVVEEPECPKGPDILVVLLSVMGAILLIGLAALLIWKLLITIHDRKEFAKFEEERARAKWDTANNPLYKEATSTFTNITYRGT
Sequence (P08514 32-887 limits assumed): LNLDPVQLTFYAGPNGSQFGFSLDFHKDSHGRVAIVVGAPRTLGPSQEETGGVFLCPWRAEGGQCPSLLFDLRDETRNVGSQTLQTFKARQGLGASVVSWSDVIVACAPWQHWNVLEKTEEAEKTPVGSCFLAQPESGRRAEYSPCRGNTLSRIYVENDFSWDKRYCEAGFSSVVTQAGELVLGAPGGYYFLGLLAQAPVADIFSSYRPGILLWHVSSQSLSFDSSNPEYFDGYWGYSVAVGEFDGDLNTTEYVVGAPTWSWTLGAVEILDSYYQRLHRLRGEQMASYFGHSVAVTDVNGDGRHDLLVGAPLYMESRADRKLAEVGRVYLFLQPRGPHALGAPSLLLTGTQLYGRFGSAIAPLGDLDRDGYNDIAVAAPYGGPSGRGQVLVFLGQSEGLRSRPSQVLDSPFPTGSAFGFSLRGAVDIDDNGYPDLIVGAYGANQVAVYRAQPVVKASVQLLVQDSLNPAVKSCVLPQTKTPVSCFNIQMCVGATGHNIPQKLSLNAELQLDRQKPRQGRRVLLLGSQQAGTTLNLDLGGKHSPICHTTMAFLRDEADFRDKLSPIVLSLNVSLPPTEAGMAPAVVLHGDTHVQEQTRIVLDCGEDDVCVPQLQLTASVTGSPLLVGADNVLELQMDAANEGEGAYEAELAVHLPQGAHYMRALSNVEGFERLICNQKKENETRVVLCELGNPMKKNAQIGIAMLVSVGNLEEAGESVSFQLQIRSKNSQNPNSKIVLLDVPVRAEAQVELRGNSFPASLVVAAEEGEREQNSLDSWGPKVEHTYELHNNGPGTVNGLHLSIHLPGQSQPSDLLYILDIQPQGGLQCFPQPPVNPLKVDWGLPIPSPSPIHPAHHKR
Sequence (P08514 891-1039 limits assumed): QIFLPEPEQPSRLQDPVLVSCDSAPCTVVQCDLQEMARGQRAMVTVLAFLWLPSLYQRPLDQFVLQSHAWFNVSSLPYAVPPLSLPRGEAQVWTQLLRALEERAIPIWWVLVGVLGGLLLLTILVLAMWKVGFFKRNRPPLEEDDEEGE
measurement type: IC50 (nM)

CC(C)[C@H](NC(=O)[C@H](CC(=O)O)NC(=O)CCCCOc1ccc(C(=N)N)cc1)C(=O)O : 230

a = N=C(N)c1ccc(OCCCCC(=O)N[C@@H](CC(=O)O)C(=O)N[C@@H](Cc2ccc(O)cc2)C(=O)O)cc1
b = CN(C(=O)[C@H](CC(=O)O)NC(=O)CCCCOc1ccc(C(=N)N)cc1)[C@@H](Cc1ccc(O)cc1)C(=O)O
c = CC(C)[C@H](NC(=O)[C@H](CC(=O)O)NC(=O)CCCOc1ccc(C(=N)N)cc1)C(=O)O
Sort entries by IC50 from minimum to maximum value. List the labels according to the requested ordering.
c, b, a
